target: HLA-A*68:02; test: IEDB peptide-MHC binding, purified MHC/direct/fluorescence; filed as Kd, often an IC50 or EC50 that approximates it; bounds were set here for any values at or beyond the usual limits of such assays; conditions: source organism: Influenza A virus H3N2
Property measured: Kd

Ask: // fetch Kd for `AVDADDSHF` ; system: HLA-A*68:02
Result: ≥ 20 µM

---

target: HLA-A*32:01; experiment: IEDB peptide-MHC binding, purified MHC/competitive/radioactivity; filed as Kd, often an IC50 or EC50 that approximates it; bounds were set here for any values at or beyond the usual limits of such assays; settings: source organism: Dengue virus 2 Peru/IQT2913/1996
Property measured: pKd
Schema: pKd number; meaning minus log10 of the concentration expressed in molar units.

Ask: Answer with the recorded pKd for the sequence listed here: `ISGLFPVSI`
Result: 5.90

---

target: HLA-B*39:01; assay: IEDB peptide-MHC binding, purified MHC/competitive/fluorescence; filed as Kd, often an IC50 or EC50 that approximates it; bounds were set here for any values at or beyond the usual limits of such assays; conditions: source organism: Reston ebolavirus
Property measured: Kd

Ask: // fetch Kd for `ALYEENALK` ; system: HLA-B*39:01
Result: ≥ 20 µM

Ask: // fetch Kd for `GVPPKVVSY` ; system: HLA-B*39:01
Result: ≥ 20 µM

---

target: HLA-B*35:01; assay: IEDB peptide-MHC binding, purified MHC/direct/fluorescence; filed as Kd, often an IC50 or EC50 that approximates it; bounds were set here for any values at or beyond the usual limits of such assays; details: source organism: Giardia lamblia ATCC 50803
Property measured: pKd
Schema: pKd number; meaning minus log10 of the concentration expressed in molar units.

Ask: Answer with the recorded pKd for the sequence listed here: `SVKERGPAY`
Result: 7.40

---

target: HLA-B*53:01; experiment: IEDB peptide-MHC binding, purified MHC/competitive/radioactivity; filed as Kd, often an IC50 or EC50 that approximates it; bounds were set here for any values at or beyond the usual limits of such assays; settings: source organism: Human alphaherpesvirus 2
Property measured: pKd
Schema: pKd number; meaning minus log10 of the concentration expressed in molar units.

Ask: Answer with the recorded pKd for the sequence listed here: `APAWSRRTL`
Result: 5.45

---

molecular target: HLA-A*68:01; assay: IEDB peptide-MHC binding, purified MHC/competitive/radioactivity; filed as Kd, often an IC50 or EC50 that approximates it; bounds were set here for any values at or beyond the usual limits of such assays; conditions: source organism: Dengue virus 4 Philippines/H241/1956
Property measured: pKd
Schema: pKd number; meaning minus log10 of the concentration expressed in molar units.

Ask: Answer with the recorded pKd for the sequence listed here: `VTFKVPHAK`
Result: 6.75

---

target: HLA-B*15:01; assay: IEDB peptide-MHC binding, purified MHC/direct/fluorescence; filed as Kd, often an IC50 or EC50 that approximates it; bounds were set here for any values at or beyond the usual limits of such assays; settings: source organism: Brucella melitensis
pKd: −log10 of the molar value.
Property measured: pKd

Ask: Answer with the recorded pKd for the sequence listed here: `CTDPPLLSV`
Result: ≤ 4.70

Ask: Answer with the recorded pKd for the sequence listed here: `ALFEDYPGC`
Result: ≤ 4.70

---

molecular target: HLA-A*02:12; assay: IEDB peptide-MHC binding, purified MHC/direct/fluorescence; filed as Kd, often an IC50 or EC50 that approximates it; bounds were set here for any values at or beyond the usual limits of such assays; details: source organism: Salmonella enterica subsp. arizonae serovar 62:z4,z23:-
Property measured: pKd
Schema: pKd number; meaning minus log10 of the concentration expressed in molar units.

Ask: Answer with the recorded pKd for the sequence listed here: `RIYSHIAPY`
Result: 6.32

---

target: HLA-A*30:02; assay: IEDB peptide-MHC binding, purified MHC/competitive/radioactivity; filed as Kd, often an IC50 or EC50 that approximates it; bounds were set here for any values at or beyond the usual limits of such assays; details: source organism: Mammarenavirus guanaritoense
Property measured: pKd
Schema: pKd number; meaning minus log10 of the concentration expressed in molar units.

Ask: Answer with the recorded pKd for the sequence listed here: `TDSPETHHY`
Result: 5.03

---

biological target: HLA-B*40:01; assay: IEDB peptide-MHC binding, purified MHC/direct/fluorescence; filed as Kd, often an IC50 or EC50 that approximates it; bounds were set here for any values at or beyond the usual limits of such assays; details: source organism: Burkholderia mallei
Property measured: Kd

Ask: Answer with the recorded Kd for the sequence listed here: `KLYPNVDFY`
Result: ≥ 20 µM

---

molecular target: HLA-A*03:01; test: IEDB peptide-MHC binding, purified MHC/competitive/radioactivity; filed as Kd, often an IC50 or EC50 that approximates it; bounds were set here for any values at or beyond the usual limits of such assays; conditions: source organism: Dengue virus 3 Martinique/1243/1999
Property measured: pKd
Schema: pKd number; meaning minus log10 of the concentration expressed in molar units.

Ask: Answer with the recorded pKd for the sequence listed here: `MTHRRPTIEK`
Result: 8.25

---

biological target: HLA-A*11:01; test: IEDB peptide-MHC binding, purified MHC/direct/fluorescence; filed as Kd, often an IC50 or EC50 that approximates it; bounds were set here for any values at or beyond the usual limits of such assays; conditions: source organism: Rickettsia typhi
Property measured: Kd

Ask: Answer with the recorded Kd for the sequence listed here: `APILVVSGI`
Result: ≥ 20 µM

---

target: HLA-B*44:02; experiment: IEDB peptide-MHC binding, purified MHC/direct/fluorescence; filed as Kd, often an IC50 or EC50 that approximates it; bounds were set here for any values at or beyond the usual limits of such assays; conditions: source organism: Rickettsia conorii
Property measured: Kd

Ask: Answer with the recorded Kd for the sequence listed here: `SSSGMDAYY`
Result: ≥ 20 µM

---

biological target: HLA-A*02:12; experiment: IEDB peptide-MHC binding, purified MHC/competitive/fluorescence; filed as Kd, often an IC50 or EC50 that approximates it; bounds were set here for any values at or beyond the usual limits of such assays; conditions: source organism: Salmonella enterica subsp. enterica serovar Typhi
Property measured: pKd
Schema: pKd number; meaning minus log10 of the concentration expressed in molar units.

Ask: Answer with the recorded pKd for the sequence listed here: `HVTQHWPQL`
Result: 5.15

---

target: HLA-A*02:01; assay: IEDB peptide-MHC binding, purified MHC/competitive/fluorescence; filed as Kd, often an IC50 or EC50 that approximates it; bounds were set here for any values at or beyond the usual limits of such assays; settings: source organism: Yersinia pestis Nepal516
Would you kindly list Kd for each of these sequences?
Hi! Could you send only the number? It should be in nM, unit omitted.

Ask: Answer with the recorded Kd for the sequence listed here: `SLTPSPLDL`
Result: 210

Ask: Answer with the recorded Kd for the sequence listed here: `MLYPLLWMF`
Result: 169

---

target: HLA-A*02:16; assay: IEDB peptide-MHC binding, purified MHC/direct/fluorescence; filed as Kd, often an IC50 or EC50 that approximates it; bounds were set here for any values at or beyond the usual limits of such assays; settings: source organism: Zaire ebolavirus
Would you kindly list Kd for each of these sequences?

Ask: Answer with the recorded Kd for the sequence listed here: `TTIGEWAFW`
Result: ≥ 20 µM

Ask: Answer with the recorded Kd for the sequence listed here: `LSDAIFDDL`
Result: ≥ 20 µM

---

target: HLA-A*02:06; assay: IEDB peptide-MHC binding, purified MHC/competitive/radioactivity; filed as Kd, often an IC50 or EC50 that approximates it; bounds were set here for any values at or beyond the usual limits of such assays; settings: source organism: Dengue virus 2 Jamaica/1409/1983
Would you kindly list pKd for each of these sequences?
Schema: pKd number; meaning minus log10 of the concentration expressed in molar units.

Ask: Answer with the recorded pKd for the sequence listed here: `RALIFILLTA`
Result: 6.85

Ask: Answer with the recorded pKd for the sequence listed here: `ASAWTLYAV`
Result: 8.09

Ask: Answer with the recorded pKd for the sequence listed here: `LIFILLTAV`
Result: 6.30

---

target: HLA-A*02:06; assay: IEDB peptide-MHC binding, purified MHC/competitive/fluorescence; filed as Kd, often an IC50 or EC50 that approximates it; bounds were set here for any values at or beyond the usual limits of such assays; settings: source organism: Human immunodeficiency virus 1
Property measured: Kd (nM)
Hi! Could you send only the number? It should be in nM, unit omitted.

Ask: Answer with the recorded Kd for the sequence listed here: `NLGQHIYET`
Result: 110

Ask: Answer with the recorded Kd for the sequence listed here: `DLADQLIHL`
Result: 59

---

target: HLA-A*24:02; assay: IEDB peptide-MHC binding, purified MHC/competitive/radioactivity; filed as Kd, often an IC50 or EC50 that approximates it; bounds were set here for any values at or beyond the usual limits of such assays; conditions: source organism: Mammarenavirus juninense
Property measured: Kd
Answers without a unit are incomplete; give the number and then its unit.

Ask: Answer with the recorded Kd for the sequence listed here: `AGSKYIHCF`
Result: 5.37 µM
